src = paper PMC10397247

- test-target: T1, APC8516-AA
- T1 chain: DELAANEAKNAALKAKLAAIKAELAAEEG
- protocol-summary: two-hybrid library CCmax;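 further: natural log of median RNA to DNA barcode read ratio; higher means stronger binding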
- condition-info: mean of both orientations
Below, each entry is listed alongside its reported interaction score.
quantity-kind: interaction score

1. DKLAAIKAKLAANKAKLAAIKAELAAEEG [APC1916-AA] ... -1.83
2. DKNAALKAKNAALKAKAAALKAKLAAIKG [APC5531-AA] ... -1.6
3. DELAAIEAKNAALKAENAALEAEAAALEG [APC542-AA] ... -1.5
